Can you tell me pIC50 for the items I'm about to list?
- measured-target: Axl (Homo sapiens)
- Construct: endogenous in cells; host or cells: HeLa
- assay-text: Phospho-AKT in-cell Western assay (inhibition of Axl activity)
- Format: cell-based
- details: Table 2, formula (Ib); Hela cells, Axl antibody cross-linking stimulation, phospho-Akt chemiluminescence normalized to relative cell number
pIC50: −log10 of the molar value.

Inquiry: Which value of pIC50 has been reported for CNC(=O)[C@@H]1C[C@@H]2C[C@@H](C2(C)C)[C@]1(C)Nc1nc(Nc2ccc(N3CCOCC3)cc2)ncc1Cl in the records?
Reply text: 5.00 to 6.00

Inquiry: Note, next up: CNC(=O)[C@@H]1C[C@@H]2C[C@@H](C2(C)C)[C@]1(C)Nc1nc(Nc2ccc(OCCN3CCCC3)cc2)ncc1Cl
Reply text: < 4.70

Inquiry: Note, next up: CNC(=O)[C@@H]1C[C@@H]2C[C@@H](C2(C)C)[C@]1(C)Nc1nc(Nc2ccc(OCCN3CCCC3)c(F)c2)ncc1Cl
Reply text: 5.00 to 6.00

* * *

Can you tell me pIC50 for the items I'm about to list?
- measured-target: Axl (Homo sapiens)
- Construct: endogenous in cells; host or cells: HeLa
- Sequence (P30530 26-894): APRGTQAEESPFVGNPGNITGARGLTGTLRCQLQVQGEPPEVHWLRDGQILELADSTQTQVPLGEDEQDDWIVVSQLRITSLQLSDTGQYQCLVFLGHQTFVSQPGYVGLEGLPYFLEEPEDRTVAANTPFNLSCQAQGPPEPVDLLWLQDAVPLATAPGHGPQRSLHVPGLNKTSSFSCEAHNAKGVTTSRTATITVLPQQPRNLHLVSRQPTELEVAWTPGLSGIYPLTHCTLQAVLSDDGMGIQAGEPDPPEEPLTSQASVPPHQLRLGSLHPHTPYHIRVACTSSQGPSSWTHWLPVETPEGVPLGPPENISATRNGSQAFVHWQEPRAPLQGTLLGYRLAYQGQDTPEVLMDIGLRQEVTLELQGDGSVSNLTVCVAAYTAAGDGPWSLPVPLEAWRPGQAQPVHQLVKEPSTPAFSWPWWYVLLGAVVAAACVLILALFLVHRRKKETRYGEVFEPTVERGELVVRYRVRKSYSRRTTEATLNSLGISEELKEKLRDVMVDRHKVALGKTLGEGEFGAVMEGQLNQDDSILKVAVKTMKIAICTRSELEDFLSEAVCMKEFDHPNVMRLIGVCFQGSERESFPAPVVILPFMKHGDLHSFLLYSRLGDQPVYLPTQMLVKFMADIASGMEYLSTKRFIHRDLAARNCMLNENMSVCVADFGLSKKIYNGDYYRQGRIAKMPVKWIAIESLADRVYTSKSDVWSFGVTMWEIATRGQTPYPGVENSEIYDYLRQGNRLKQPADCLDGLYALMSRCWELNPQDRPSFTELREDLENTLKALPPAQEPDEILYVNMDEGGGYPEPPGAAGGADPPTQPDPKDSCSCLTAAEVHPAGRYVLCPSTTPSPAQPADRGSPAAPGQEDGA
- assay-text: Phospho-AKT in-cell Western assay (inhibition of Axl activity)
- Assay type: cell-based
- details: Table 1, formula (Ia); Hela cells, Axl antibody cross-linking stimulation, phospho-Akt chemiluminescence normalized to relative cell number
pIC50: −log10 of the molar value.

Inquiry: Which value of pIC50 has been reported for CN1CCN(c2ccc(Nc3nccc(N[C@@]4(CCO)[C@@H](C(N)=O)C[C@H]5C[C@@H]4C5(C)C)n3)cc2F)CC1 [Compound 19] in the records?
Reply text: < 4.70

Inquiry: Note, next up: CNC(=O)[C@H]1C[C@H]2C[C@H](C2(C)C)[C@@]1(C)Nc1nc(Nc2ccc(N3CCN(CCO)CC3)cc2)ncc1C [Compound 42]
Reply text: 5.00 to 6.00

Inquiry: Note, next up: CNC(=O)[C@H]1C[C@H]2C[C@H](C2(C)C)[C@@]1(C)Nc1nc(Nc2ccc(N3CCC(F)(F)CC3)c(Cl)c2)ncc1F [Compound 34]
Reply text: < 4.70

Inquiry: Note, next up: CNC(=O)[C@H]1C[C@H]2C[C@H](C2(C)C)[C@@]1(C)Nc1nc(Nc2ccc(N3CCN(C(C)=O)CC3)c(Cl)c2)ncc1F [Compound 38]
Reply text: 5.00 to 6.00

Inquiry: Note, next up: CNC(=O)[C@H]1C[C@H]2C[C@H](C2(C)C)[C@@]1(C)Nc1nc(Nc2ccc(N3CCC(N4CCC(C)CC4)CC3)c(F)c2)ncc1Cl [Compound 54]
Reply text: > 6.00

Inquiry: Note, next up: CNC(=O)[C@H]1C[C@H]2C[C@H](C2(C)C)[C@@]1(C)Nc1nc(Nc2ccc(Cl)c(N3CCN(C(C)=O)CC3)c2)ncc1Cl [Compound 16]
Reply text: 5.00 to 6.00

* * *

Can you tell me IC50 for the items I'm about to list?
- measured-target: Axl (Homo sapiens, UniProt P30530)
- Construct: endogenous in cells; host or cells: HeLa
- assay-text: Phospho-AKT in-cell Western assay (inhibition of Axl activity)
- Assay type: cell-based
- details: Table 3, formula (Ic); Hela cells, Axl antibody cross-linking stimulation, phospho-Akt chemiluminescence normalized to relative cell number

Inquiry: Reported IC50 for Axl (Homo sapiens, UniProt P30530), given CNC(=O)[C@H]1C[C@H]2C[C@H](C2(C)C)[C@@]1(C)Nc1nc(Nc2ccc3c(c2)OCCN3CCN(C)C)ncc1Cl [Compound 47] ?
Reply text: < 1000 nM

Inquiry: Note, next up: CNC(=O)[C@H]1C[C@H]2C[C@H](C2(C)C)[C@@]1(C)Nc1nc(Nc2ccc3c(c2)N(CCN(C)C)CCO3)ncc1F [Compound 51]
Reply text: 1000 to 10000 nM

Inquiry: Note, next up: CNC(=O)[C@H]1C[C@H]2C[C@H](C2(C)C)[C@@]1(C)Nc1nc(Nc2ccc3c(c2)OCCN3CCN2CCCCC2)ncc1Cl [Compound 56]
Reply text: < 1000 nM

Inquiry: Note, next up: CNC(=O)[C@H]1C[C@H]2C[C@H](C2(C)C)[C@@]1(C)Nc1nc(Nc2ccc3c(c2)OCCN3CCN2CCOCC2)ncc1Cl [Compound 58]
Reply text: < 1000 nM

Inquiry: Note, next up: CNC(=O)[C@H]1C[C@H]2C[C@H](C2(C)C)[C@@]1(C)Nc1nc(Nc2ccc3c(c2)OCCN3CCN(C)C)ncc1C [Compound 49]
Reply text: 1000 to 10000 nM

Inquiry: Note, next up: CNC(=O)[C@H]1C[C@H]2C[C@H](C2(C)C)[C@@]1(C)Nc1nc(Nc2ccc3c(c2)OCCN3CCN(C)C)ncc1F [Compound 48]
Reply text: 1000 to 10000 nM

Inquiry: Note, next up: CN(C)CCN1CCOc2cc(Nc3ncc(Cl)c(N[C@@]4(C)[C@@H](C(=O)NCCO)C[C@H]5C[C@@H]4C5(C)C)n3)ccc21 [Compound 60]
Reply text: < 1000 nM

Inquiry: Note, next up: CNC(=O)[C@H]1C[C@H]2C[C@H](C2(C)C)[C@@]1(C)Nc1nc(Nc2ccc3c(c2)N(CCN(C)C)CCO3)ncc1Cl [Compound 50]
Reply text: 1000 to 10000 nM

Inquiry: Note, next up: CCN(CC)CCN1CCOc2cc(Nc3ncc(F)c(N[C@@]4(C)[C@@H](C(=O)NC)C[C@H]5C[C@@H]4C5(C)C)n3)ccc21 [Compound 46]
Reply text: < 1000 nM

* * *

- measured-target: Axl (Homo sapiens, UniProt P30530)
- Construct: endogenous in cells; host or cells: HeLa
- assay-text: Phospho-AKT in-cell Western assay (inhibition of Axl activity)
- Type: cell-based
- details: Table 1, formula (Ia); Hela cells, Axl antibody cross-linking stimulation, phospho-Akt chemiluminescence normalized to relative cell number
property-label: IC50

Inquiry: Which value of IC50 has been reported for CCN1CCN(c2cc(Nc3ncc(Cl)c(N[C@@]4(C)[C@@H](C(=O)NC)C[C@H]5C[C@@H]4C5(C)C)n3)ccc2Cl)CC1 [Compound 15] in the records?
Reply text: 1000 to 10000 nM

Inquiry: Note, next up: CNC(=O)[C@H]1C[C@H]2C[C@H](C2(C)C)[C@@]1(C)Nc1nc(Nc2ccc(OCCNC3CCCC3)cc2)ncc1Cl [Compound 9]
Reply text: < 1000 nM

Inquiry: Note, next up: CNC(=O)[C@H]1C[C@H]2C[C@H](C2(C)C)[C@@]1(C)Nc1nc(Nc2ccc(OCCN(C)C3CCCC3)cc2)ncc1Cl [Compound 33]
Reply text: < 1000 nM

Inquiry: Note, next up: CNC(=O)[C@H]1C[C@H]2C[C@H](C2(C)C)[C@@]1(C)Nc1nc(Nc2ccc(Cl)c(N3CCN(C(=O)OC)CC3)c2)ncc1Cl [Compound 18]
Reply text: > 20000 nM

Inquiry: Note, next up: CNC(=O)[C@H]1C[C@H]2C[C@H](C2(C)C)[C@@]1(C)Nc1nc(Nc2ccc(N3CCN(C(C)=O)CC3)cc2)ncc1Cl [Compound 13]
Reply text: 1000 to 10000 nM

Inquiry: Note, next up: CNC(=O)[C@H]1C[C@H]2C[C@H](C2(C)C)[C@@]1(C)Nc1nc(Nc2ccc(C3CCN(C)CC3)cc2)ncc1Cl [Compound 12]
Reply text: < 1000 nM

Inquiry: Note, next up: CNC(=O)[C@H]1C[C@H]2C[C@H](C2(C)C)[C@@]1(C)Nc1nc(Nc2ccc(N3CCC(F)(F)CC3)c(F)c2)ncc1C [Compound 44]
Reply text: 1000 to 10000 nM

Inquiry: Note, next up: CNC(=O)[C@H]1C[C@H]2C[C@H](C2(C)C)[C@@]1(C)Nc1nc(Nc2ccc(N3CCN(S(C)(=O)=O)CC3)c(C(F)(F)F)c2)ncc1F [Compound 37]
Reply text: > 20000 nM

Inquiry: Note, next up: CNC(=O)[C@H]1C[C@H]2C[C@H](C2(C)C)[C@@]1(C)Nc1nc(Nc2ccc(OCCN3CCCC3)cc2)ncc1F [Compound 40]
Reply text: 1000 to 10000 nM

Inquiry: Note, next up: CCN(CC)C1CCN(c2ccc(Nc3ncc(Cl)c(N[C@@]4(C)[C@@H](C(=O)NC)C[C@H]5C[C@@H]4C5(C)C)n3)cc2F)CC1 [Compound 32]
Reply text: < 1000 nM

Inquiry: Note, next up: CNC(=O)[C@H]1C[C@H]2C[C@H](C2(C)C)[C@@]1(C)Nc1nc(Nc2ccc(C(=O)N3CCN(C)CC3)c(Cl)c2)ncc1Cl [Compound 14]
Reply text: < 1000 nM

Inquiry: Note, next up: CNC(=O)[C@H]1C[C@H]2C[C@H](C2(C)C)[C@@]1(C)Nc1nc(Nc2ccc(C(=O)N3CCN(C4CCCCC4)CC3)cc2)ncc1Cl [Compound 10]
Reply text: < 1000 nM

Inquiry: Note, next up: CC1(C)[C@H]2C[C@H](C(N)=O)[C@](C)(Nc3nc(Nc4ccc(OCCN5CCCC5)c(F)c4)ncc3Cl)[C@@H]1C2 [Compound 30]
Reply text: < 1000 nM

Inquiry: Note, next up: CC1(C)[C@H]2C[C@H](C(=O)NC3CC3)[C@](C)(Nc3nc(Nc4ccc(OCCN5CCCC5)cc4)ncc3Cl)[C@@H]1C2 [Compound 61]
Reply text: < 1000 nM
